Source listed as patent US20110312986A1.

experimental-conditions: both, human, plasma, oral, 60 mg
readout-type: concentration at 1 hr (ng/mL)
Report only the number, with the unit ng/mL understood.

Task: Requested read-out: concentration at 1 hr. Entry: O=C(OC1CC2CCC(C1)[N+]21CCCC1)C(O)(c1ccccc1)c1ccccc1.[Cl-] (stereo not shown) [Trospium]
Output: 0.831

---

experimental-conditions: both, human, plasma, oral, 60 mg
readout-type: Cmax (ng/mL)
Report only the number, with the unit ng/mL understood.

Task: Requested read-out: Cmax. Entry: O=C(OC1CC2CCC(C1)[N+]21CCCC1)C(O)(c1ccccc1)c1ccccc1.[Cl-] (stereo not shown)
Output: 1.87

---

experimental-conditions: both, human, plasma, oral, 60 mg
readout-type: concentration at 10 hr (ng/mL)
Report only the number, with the unit ng/mL understood.

Task: Requested read-out: concentration at 10 hr. Entry: O=C(OC1CC2CCC(C1)[N+]21CCCC1)C(O)(c1ccccc1)c1ccccc1.[Cl-] (stereo not shown)
Output: 0.878
